- Protocol description: Sedative effect (spontaneous locomotor activity), first part
- Setup conditions: male, ddY, mouse, in vivo, po
Property name: ED50 at 1 h (mg/kg)
Entry rule: numbers only, all in mg/kg.

Fill in the blank: the reported ED50 at 1 h of CN1C(=O)CN=C(c2ccccc2)c2cc(Cl)ccc21 [Diazepam, diazepam, reference compound] is ____. 1.7

----------
- Protocol description: Effect on central nervous system depressant: pentobarbital anesthetic method
- Setup conditions: male, ddY, mouse, in vivo
- Protocol: Effect On Central Nervous System Depressant a. Pentobarbital Anesthetic Method Compound 3, Compound 13, diazepam or buspirone was suspended in a 0.5 % sodium carboxymethyl cellulose solution, and the suspension was orally administered to 3- to 4-week-old male ddY mice (in groups of 5 to 10) in a volume of 10 ml/kg one hour before the start of experiment. […]
Property name: ED50 at 1 h (mg/kg)
Entry rule: numbers only, all in mg/kg.

Fill in the blank: the reported ED50 at 1 h of CN1C(=O)CN=C(c2ccccc2)c2cc(Cl)ccc21 [Diazepam, diazepam, reference compound] is ____. 0.53
